# TEST_SYSTEM: TEAD3 (Homo sapiens (Human), UniProt Q99594)
# Sequence (Q99594 whole entry, species assumed): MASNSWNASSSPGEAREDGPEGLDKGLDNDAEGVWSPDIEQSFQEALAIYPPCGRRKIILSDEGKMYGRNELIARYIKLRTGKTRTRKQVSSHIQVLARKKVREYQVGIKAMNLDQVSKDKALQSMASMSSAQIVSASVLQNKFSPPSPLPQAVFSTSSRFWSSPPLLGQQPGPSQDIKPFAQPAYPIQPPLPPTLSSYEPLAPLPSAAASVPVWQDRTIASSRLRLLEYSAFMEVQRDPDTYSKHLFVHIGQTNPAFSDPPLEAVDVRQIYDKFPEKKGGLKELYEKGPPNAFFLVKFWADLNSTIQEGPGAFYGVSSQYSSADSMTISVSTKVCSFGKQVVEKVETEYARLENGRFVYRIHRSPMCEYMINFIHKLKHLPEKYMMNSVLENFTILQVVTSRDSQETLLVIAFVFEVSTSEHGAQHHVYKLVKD
# METHOD_SUMMARY: TEAD lipid pocket TR-FRET (Lipid HTRF) probe competition assay
# Assay type: binding
# PARTICULARS: 4 hours incubation with compound
pIC50: −log10 of the molar value.
MEASURED_ATTRIBUTE: pIC50

INSERT INTO results (compound, reading_qualifier, val) VALUES
  ('C=C(CNc1cc(-n2ccc(C(C)C)n2)c2c(c1C#N)CCO2)C(=O)NO [Compound 36]', '<', 4.30),
  ('C=C(CNc1cc(-c2ccc(OC(F)(F)F)cc2)c2c(c1CO)CCO2)C(N)=O [Compound 35]', '=', 5.77),
  ('C=C(CNc1cc(-c2cc(C(C)C)cs2)c2c(c1C#N)CCO2)C(=O)O [Compound 32]', '=', 6.37),
  ('C=C(CNc1cc(-c2ccc(S(F)(F)(F)(F)F)cc2)c2ncsc2c1C#N)C(=O)NO [Compound 51]', '=', 5.92),
  ('[2H]C1([2H])COc2c(-c3ccc(C(C)C)cc3)cc(NCC(=C)C(=O)O)c(C#N)c21 [Compound 40]', '=', 6.17),
  ('[2H]C1([2H])COc2c(-c3ccc(C(C)C)cc3)cc(NCC(=C)C(N)=O)c(C#N)c21 [Compound 33]', '=', 5.85),
  ('C=C(CNc1cc(-c2ncc(C(C)C)s2)c2c(c1C#N)CCO2)C(=O)NO [Compound 27]', '<', 4.30),
  ('C=C(CNc1cc(-c2ccc(OC(F)(F)F)cc2)c2c(c1C#N)CCO2)C(=O)NO [Compound 39]', '=', 6.40),
  ('C=C(CNc1cc(-c2ccc(S(F)(F)(F)(F)F)cc2)c2c(c1C#N)CCO2)C(=O)O [Compound 45]', '=', 6.04),
  ('C=C(CNc1cc(-c2ccc(OC(F)(F)F)cc2)c2c(c1CO)CCO2)C(=O)NO [Compound 46]', '=', 6.36),
  ('C=C(CNc1cc(-c2nc(C(C)C)cs2)c2c(c1C#N)CCO2)C(=O)NO [Compound 31]', '<', 4.30),
  ('C=C(CNc1cc(-c2ncc(C(C)C)s2)c2c(c1C#N)CCO2)C(=O)O [Compound 49]', '=', 5.55),
  ('[2H]C1([2H])COc2c(-c3ccc(C(C)C)cc3)cc(NCC(=C)C(=O)NO)c(C#N)c21 [Compound 29]', '=', 6.37);
